Each recorded value in this set is attributed to paper PMC9250534.

Biological target: MDM2 (Homo sapiens, UniProt Q00987)
Sequence (Q00987 whole entry): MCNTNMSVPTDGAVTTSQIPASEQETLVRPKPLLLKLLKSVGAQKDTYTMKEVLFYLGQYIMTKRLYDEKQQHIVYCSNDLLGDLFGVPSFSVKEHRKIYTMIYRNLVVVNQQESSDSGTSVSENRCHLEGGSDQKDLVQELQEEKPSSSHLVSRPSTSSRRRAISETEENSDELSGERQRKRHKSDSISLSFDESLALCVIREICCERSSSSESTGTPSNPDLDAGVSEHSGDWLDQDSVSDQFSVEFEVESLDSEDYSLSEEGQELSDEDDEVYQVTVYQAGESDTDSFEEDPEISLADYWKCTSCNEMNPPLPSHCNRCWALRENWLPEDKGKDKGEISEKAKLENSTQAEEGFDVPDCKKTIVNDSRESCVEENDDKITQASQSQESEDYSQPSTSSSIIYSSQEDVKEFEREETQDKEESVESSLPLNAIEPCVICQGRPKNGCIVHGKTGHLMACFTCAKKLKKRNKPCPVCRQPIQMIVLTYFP
Assay: MDM2 binding screen: displacement of fluorescent p53 peptide probe FP53 (fluorescence polarization)
Conditions: Acid 25; replicate; crude macrocycle reactions
Numbered stars: 1 amine (or outer) side, 2 acyl side, 3 side chain; on linkers, the order of the positions; unused ones are H or OH. Bridge positions count the residues as written; N and C are the ends. Square brackets hold non-standard residues; d marks the D form. Peptide text beside a SMILES is read from it. * marks the point of attachment. Benzoyl(4-Cl) = O=C(c1ccc(Cl)cc1)*; Cysteamide = C(CS[*:3])N[*:1]; Api = NC1(C(=O)O)CCNCC1; Dap = NC[CH](N)C(=O)O; Mpa = O=C(O)CCS
# fraction fluorescent probe displaced, Replicate binned as Low (below 0.1), Medium (0.1 to below 0.2), High (0.2 or more)

// query Textbook exercise: identify the category of the molecule given here, O=C1CCSSCCNC(=O)C2(CCN(C(=O)c3ccc(Cl)cc3)CC2)NC(=O)c2cccc(c2)CNC(=O)[C@H](Cc2ccccc2)N1 [X F B5 D6 Acid 25] , according to its measured value.
// result Low

// query Textbook exercise: identify the category of the molecule given here, O=C1CCNC(=O)C(Cc2c[nH]c3ccccc23)NC(=O)C2CN(C(=O)c3ccc(Cl)cc3)CCN2C(=O)CCSSCCN1 (stereo not shown) [X D7 W B2 Acid 25] , according to its measured value.
// result Medium

// query Textbook exercise: identify the category of the molecule given here, O=C1CCSSCCNC(=O)C2CC(NC(=O)c3ccc(Cl)cc3)CN2C(=O)C(Cc2c[nH]c3ccccc23)NC(=O)CCN1 (stereo not shown) [X B2 W D5 Acid 25] , according to its measured value.
// result High

// query Textbook exercise: identify the category of the molecule given here, O=C1NC(Cc2ccccc2)C(=O)N2CCN(C(=O)c3ccc(Cl)cc3)CC2C(=O)NCCSSCCC(=O)N2CCCC12 (stereo not shown) [X B1 F D7 Acid 25] , according to its measured value.
// result Medium

// query Textbook exercise: identify the category of the molecule given here, O=C1CCNC(=O)[C@H](Cc2c[nH]c3ccccc23)NC(=O)CCSSCCNC(=O)[C@H](CNC(=O)c2ccc(Cl)cc2)N1 [X W B2 D3 Acid 25] , according to its measured value.
// result High

// query Textbook exercise: identify the category of the molecule given here, O=C1CCSSCCNC(=O)[C@H](Cc2ccccc2)NC(=O)[C@@H]2CCCN2C(=O)C2(CCN(C(=O)c3ccc(Cl)cc3)CC2)N1 [X D6 B1 F Acid 25] ([Mpa][Api](Benzoyl(4-Cl))PF-Cysteamide; disulfide 1-C) , according to its measured value.
// result Low

// query Textbook exercise: identify the category of the molecule given here, O=C1CCSSCCNC(=O)c2cccc(c2)CNC(=O)C2(CCN(C(=O)c3ccc(Cl)cc3)CC2)NC(=O)C(Cc2c[nH]c3ccccc23)N1 (stereo not shown) [X W D6 B5 Acid 25] , according to its measured value.
// result Medium

// query Textbook exercise: identify the category of the molecule given here, O=C(NC[C@@H]1NC(=O)[C@H](Cc2ccccc2)NC(=O)[C@H]2CCCN(C2)C(=O)CCSSCCNC1=O)c1ccc(Cl)cc1 [X B4 F D3 Acid 25] , according to its measured value.
// result Medium

// query Textbook exercise: identify the category of the molecule given here, O=C1CCSSCCNC(=O)C2CN(C(=O)c3ccc(Cl)cc3)CCN2C(=O)C(Cc2c[nH]c3ccccc23)NC(=O)c2cccc(c2)CN1 (stereo not shown) [X B5 W D7 Acid 25] , according to its measured value.
// result Low

// query Textbook exercise: identify the category of the molecule given here, O=C(NC1CC2C(=O)NCCSSCCC(=O)N3CCCC(C3)C(=O)NC(Cc3ccccc3)C(=O)N2C1)c1ccc(Cl)cc1 (stereo not shown) [X B4 F D5 Acid 25] , according to its measured value.
// result Medium

// query Textbook exercise: identify the category of the molecule given here, O=C1CCSSCCNC(=O)C2CC(NC(=O)c3ccc(Cl)cc3)CN2C(=O)CCNC(=O)C(Cc2ccccc2)N1 (stereo not shown) [X F B2 D5 Acid 25] , according to its measured value.
// result Low

// query Textbook exercise: identify the category of the molecule given here, O=C1NC(Cc2c[nH]c3ccccc23)C(=O)N2CCN(C(=O)c3ccc(Cl)cc3)CC2C(=O)NCCSSCCC(=O)N2CCCC1C2 (stereo not shown) [X B4 W D7 Acid 25] , according to its measured value.
// result Medium

// query Textbook exercise: identify the category of the molecule given here, O=C1NCCSSCCC(=O)N2CCN(C(=O)c3ccc(Cl)cc3)CC2C(=O)NC(Cc2c[nH]c3ccccc23)C(=O)NCc2cccc1c2 (mixture of isomers) [X D7 W B5 Acid 25] , according to its measured value.
// result High

// query Textbook exercise: identify the category of the molecule given here, O=C1CCSSCCNC(=O)C(CNC(=O)c2ccc(Cl)cc2)NC(=O)C2CCCN2C(=O)C(Cc2ccccc2)N1 (stereo not shown) [X F B1 D3 Acid 25] ([Mpa]FP[Dap](Benzoyl(4-Cl))-Cysteamide; disulfide 1-C; configuration not given here) , according to its measured value.
// result High

// query Textbook exercise: identify the category of the molecule given here, O=C(N[C@H]1C[C@H]2C(=O)NCc3cccc(c3)C(=O)N[C@@H](Cc3ccccc3)C(=O)NCCSSCCC(=O)N2C1)c1ccc(Cl)cc1 [X D5 B5 F Acid 25] , according to its measured value.
// result Medium

// query Textbook exercise: identify the category of the molecule given here, O=C1CCSSCCNC(=O)C2(CCN(C(=O)c3ccc(Cl)cc3)CC2)NC(=O)[C@H](Cc2c[nH]c3ccccc23)NC(=O)c2cccc(c2)CN1 [X B5 W D6 Acid 25] , according to its measured value.
// result High

// query Textbook exercise: identify the category of the molecule given here, O=C1CCNC(=O)C2(CCN(C(=O)c3ccc(Cl)cc3)CC2)NC(=O)CCSSCCNC(=O)[C@H](Cc2ccccc2)N1 [X D6 B2 F Acid 25] , according to its measured value.
// result Low

// query Textbook exercise: identify the category of the molecule given here, O=C1CCNC(=O)C(Cc2ccccc2)NC(=O)C2CN(C(=O)c3ccc(Cl)cc3)CCN2C(=O)CCSSCCN1 (stereo not shown) [X D7 F B2 Acid 25] , according to its measured value.
// result Low
